TARGET: wild type PRC2 (wtPRC2) complex (Homo sapiens (Human))
Sequence (O75530 whole entry): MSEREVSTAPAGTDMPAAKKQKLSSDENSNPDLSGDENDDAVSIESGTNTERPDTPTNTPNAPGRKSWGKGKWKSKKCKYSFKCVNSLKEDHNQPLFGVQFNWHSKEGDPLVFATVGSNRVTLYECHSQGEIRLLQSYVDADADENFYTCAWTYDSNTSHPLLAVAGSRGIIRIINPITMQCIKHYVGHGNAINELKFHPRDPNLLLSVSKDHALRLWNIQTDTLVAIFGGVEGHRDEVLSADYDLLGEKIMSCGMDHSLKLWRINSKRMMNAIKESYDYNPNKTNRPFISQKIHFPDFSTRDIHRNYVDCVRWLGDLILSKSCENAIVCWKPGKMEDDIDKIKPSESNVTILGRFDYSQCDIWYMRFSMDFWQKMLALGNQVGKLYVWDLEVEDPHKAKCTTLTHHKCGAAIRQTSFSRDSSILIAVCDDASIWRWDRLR
Sequence (Q15910 whole entry partner): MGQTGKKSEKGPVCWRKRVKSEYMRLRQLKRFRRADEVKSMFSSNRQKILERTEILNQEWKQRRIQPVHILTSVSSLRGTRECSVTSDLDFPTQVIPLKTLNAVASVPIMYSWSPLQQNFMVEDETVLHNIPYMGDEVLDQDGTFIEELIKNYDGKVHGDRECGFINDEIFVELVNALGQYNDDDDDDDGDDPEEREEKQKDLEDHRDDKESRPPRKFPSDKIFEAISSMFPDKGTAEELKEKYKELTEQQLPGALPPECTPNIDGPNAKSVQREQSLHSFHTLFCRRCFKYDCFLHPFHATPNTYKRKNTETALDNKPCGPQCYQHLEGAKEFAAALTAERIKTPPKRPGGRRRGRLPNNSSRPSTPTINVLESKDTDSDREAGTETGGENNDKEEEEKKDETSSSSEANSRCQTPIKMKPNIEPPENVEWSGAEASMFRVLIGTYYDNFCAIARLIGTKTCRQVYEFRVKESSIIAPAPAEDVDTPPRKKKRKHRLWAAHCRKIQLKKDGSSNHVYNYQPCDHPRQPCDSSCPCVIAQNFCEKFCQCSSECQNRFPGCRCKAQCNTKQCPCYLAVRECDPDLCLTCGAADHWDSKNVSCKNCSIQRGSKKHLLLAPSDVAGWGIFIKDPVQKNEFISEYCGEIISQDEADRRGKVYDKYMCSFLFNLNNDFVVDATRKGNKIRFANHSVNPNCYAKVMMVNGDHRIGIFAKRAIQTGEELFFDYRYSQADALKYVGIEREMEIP
Sequence (Q15022 whole entry partner): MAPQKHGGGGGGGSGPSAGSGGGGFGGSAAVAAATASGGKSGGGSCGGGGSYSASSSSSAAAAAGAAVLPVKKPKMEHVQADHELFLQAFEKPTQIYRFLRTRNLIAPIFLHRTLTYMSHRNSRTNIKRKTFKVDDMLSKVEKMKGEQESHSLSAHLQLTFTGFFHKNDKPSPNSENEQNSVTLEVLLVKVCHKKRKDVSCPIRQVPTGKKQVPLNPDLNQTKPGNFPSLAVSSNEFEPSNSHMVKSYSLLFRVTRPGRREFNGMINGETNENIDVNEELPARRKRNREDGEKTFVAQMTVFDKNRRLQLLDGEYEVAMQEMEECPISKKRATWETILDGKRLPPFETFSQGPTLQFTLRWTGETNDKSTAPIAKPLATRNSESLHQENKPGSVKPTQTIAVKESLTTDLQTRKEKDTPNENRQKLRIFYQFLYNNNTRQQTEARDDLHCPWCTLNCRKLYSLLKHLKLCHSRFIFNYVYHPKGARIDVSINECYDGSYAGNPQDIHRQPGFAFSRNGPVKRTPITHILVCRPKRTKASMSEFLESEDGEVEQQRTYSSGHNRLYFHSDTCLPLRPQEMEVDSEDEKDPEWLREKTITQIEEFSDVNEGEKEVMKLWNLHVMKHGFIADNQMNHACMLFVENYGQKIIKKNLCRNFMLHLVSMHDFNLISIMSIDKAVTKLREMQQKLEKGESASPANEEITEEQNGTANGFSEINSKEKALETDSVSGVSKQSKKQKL
ASSAY_METHOD_TEXT: EED LC-MS assay
STATED_CONDITIONS: read-out: (b) IC50 EED LC-MS Qualified
pIC50: −log10 of the molar value.
Hi, to clarify the labels: TRUE covers pIC50 from 8 upward, FALSE covers anything below 8.

structure_smiles=CCOc1ccc(-c2cnc(NCc3cccc4c3CCO4)n3cnnc23)cn1 qualitative_label=FALSE
structure_smiles=Cc1ccc(-c2cnc(NCc3c(F)ccc4c3CCO4)n3cnnc23)c(C)n1 qualitative_label=TRUE
structure_smiles=Cn1cc(-c2cnc(NCc3cccc4c3CCO4)n3cnnc23)cn1 qualitative_label=FALSE
structure_smiles=CCNC(=O)c1ccc(-c2cnc(NCc3cccc4c3CCO4)n3cnnc23)cn1 qualitative_label=FALSE
structure_smiles=Cc1ncccc1-c1cnc(NCc2c(F)ccc3occc23)n2cnnc12 qualitative_label=FALSE
structure_smiles=Cc1nccc(-c2cnc(NCc3c(F)ccc4c3CCO4)n3cnnc23)c1C qualitative_label=TRUE
structure_smiles=CN(C)CCc1ccc(-c2cnc(NCc3cccc4c3CCO4)n3cnnc23)cn1 qualitative_label=FALSE
structure_smiles=Fc1ccc2c(c1CNc1ncc(-c3ccncc3Cl)c3nncn13)CCO2 qualitative_label=FALSE
structure_smiles=c1cc(CNc2ncc(-c3cnn(C4CC4)c3)c3nncn23)c2c(c1)OCC2 qualitative_label=FALSE
structure_smiles=Cc1noc(C)c1-c1cnc(NCc2cccc3c2CCO3)n2cnnc12 qualitative_label=FALSE
structure_smiles=Clc1ccccc1-c1cnc(NCc2cccc3c2CCO3)n2cnnc12 qualitative_label=FALSE
structure_smiles=N#Cc1ccc(-c2cnc(NCc3cccc4c3CCO4)n3cnnc23)cn1 qualitative_label=FALSE

====

Here's what we have: IC50 numbers for EED (1-441)-His protein (Homo sapiens (Human), UniProt O75530).
REPORTED_METRIC: IC50 (nM)

structure_smiles=c1cncc(-c2cnc(NCc3cccc4c3CCO4)n3cnnc23)c1 unit=nM reported_result=10.8
structure_smiles=O=C1CNCCN1c1ccc(-c2cnc(NCc3cccc4c3CCO4)n3cnnc23)cn1 unit=nM reported_result=8.5
structure_smiles=Fc1ccc2c(c1CNc1ncc(-c3cnccc3C(F)(F)F)c3nncn13)CCO2 unit=nM reported_result=15.9
structure_smiles=Cc1nn(CCO)cc1-c1cnc(NCc2c(F)ccc3c2CCO3)n2cnnc12 unit=nM reported_result=4.5
structure_smiles=OCc1ccc(-c2cnc(NCc3c(F)ccc4c3CCO4)n3cnnc23)cn1 unit=nM reported_result=5.4
structure_smiles=Fc1ccncc1-c1cnc(NCc2c(F)ccc3c2CCO3)n2cnnc12 unit=nM reported_result=5.2
structure_smiles=N#Cc1ccccc1-c1cnc(NCc2c(F)ccc3c2CCO3)n2cnnc12 unit=nM reported_result=13.4
structure_smiles=COC(=O)N1CCN(c2ccc(-c3cnc(NCc4cccc5c4CCO5)n4cnnc34)cn2)CC1 unit=nM reported_result=6.1
structure_smiles=N#Cc1ccc(-c2cnc(NCc3cccc4c3CCO4)n3cnnc23)cn1 unit=nM reported_result=16
structure_smiles=Fc1ccccc1-c1cnc(NCc2cccc3c2CCO3)n2cnnc12 unit=nM reported_result=30.2
structure_smiles=Cc1cc(-c2cnc(NCc3c(F)ccc4c3CCO4)n3cnnc23)ccn1 unit=nM reported_result=4.7
structure_smiles=Cc1nn(C(C)C)cc1-c1cnc(NCc2c(F)ccc3c2CCO3)n2cnnc12 unit=nM reported_result=3.2
structure_smiles=Cc1nn(CCO)c(C)c1-c1cnc(NCc2cccc3c2CCO3)n2cnnc12 unit=nM reported_result=30.9
structure_smiles=CN1CCN(c2ccc(-c3cnc(NCc4cccc5occc45)n4cnnc34)cn2)CC1 unit=nM reported_result=32.2
structure_smiles=Cc1c(-c2cnc(NCc3c(F)ccc4c3CCO4)n3cnnc23)ccnc1C(F)F unit=nM reported_result=2.6
structure_smiles=Fc1ccc2c(c1CNc1ncc(-n3cccn3)c3nncn13)CCO2 unit=nM reported_result=3.1
structure_smiles=CCOc1ncc(-c2cnc(NCc3c(F)ccc4c3CCO4)n3cnnc23)c(C)n1 unit=nM reported_result=3.9
structure_smiles=CCn1nccc1-c1cnc(NCc2c(F)ccc3c2CCO3)n2cnnc12 unit=nM reported_result=18.1
structure_smiles=OCc1ncccc1-c1cnc(NCc2c(F)ccc3c2CCO3)n2cnnc12 unit=nM reported_result=4.8
structure_smiles=c1cncc(-c2cnc(NCc3cccc4occc34)n3cnnc23)c1 unit=nM reported_result=36.6
structure_smiles=Cc1noc(C)c1-c1cnc(NCc2c(F)ccc3c2CCO3)n2cnnc12 unit=nM reported_result=9
structure_smiles=Fc1ccc2c(c1CNc1ncc(-c3cccnc3C(F)F)c3nncn13)CCO2 unit=nM reported_result=4.6
structure_smiles=CNC(=O)c1ccc(-c2cnc(NCc3cccc4c3CCO4)n3cnnc23)cn1 unit=nM reported_result=57.5
structure_smiles=Cc1c(-c2cnc(NCc3c(F)ccc4c3CCO4)n3cnnc23)cnn1C(C)C unit=nM reported_result=2.3
structure_smiles=O=CN1CCCN(c2ccc(-c3cnc(NCc4cccc5c4CCO5)n4cnnc34)cn2)CC1 unit=nM reported_result=12.7
structure_smiles=CN(C)Cc1ccc(-c2cnc(NCc3c(F)ccc4c3CCO4)n3cnnc23)cc1 unit=nM reported_result=31.1
structure_smiles=Cc1ccncc1-c1cnc(NCc2c(F)ccc3c2CCO3)n2cnnc12 unit=nM reported_result=10.1
structure_smiles=Cc1cc(-c2cnc(NCc3c(F)ccc4c3CCO4)n3cnnc23)n(C)n1 unit=nM reported_result=4.1
structure_smiles=Cc1cnn(-c2cnc(NCc3c(F)ccc4c3CCO4)n3cnnc23)c1 unit=nM reported_result=6.8
structure_smiles=Cc1ccc(-c2cnc(NCc3c(F)ccc4c3CCO4)n3cnnc23)cn1 unit=nM reported_result=8.4
structure_smiles=CC(C)(O)c1ccc(-c2cnc(NCc3cccc4c3CCO4)n3cnnc23)cn1 unit=nM reported_result=4.2
structure_smiles=CS(=O)(=O)Nc1ccc(-c2cnc(NCc3cccc4c3CCO4)n3cnnc23)cc1 unit=nM reported_result=18.9
structure_smiles=Cc1c(-c2cnc(NCc3cccc4c3CCO4)n3cnnc23)cnn1C unit=nM reported_result=12.4
structure_smiles=Cc1nn(C(C)C)c(C)c1-c1cnc(NCc2cccc3c2CCO3)n2cnnc12 unit=nM reported_result=7.8
structure_smiles=Cc1cc(-c2cnc(NCc3cccc4c3CCO4)n3cnnc23)cnc1S(C)(=O)=O unit=nM reported_result=11.5
structure_smiles=CC(C)n1nccc1-c1cnc(NCc2c(F)ccc3c2CCO3)n2cnnc12 unit=nM reported_result=6.3
